Give measured MIC (μg/mL) S. aureus CICC25138 for each item. Keep answers brief.
Tested on: S. aureus CICC25138
Type: cell-based
Residues, ends and D or L forms follow the SMILES beside them.

Worked cases, MIC (μg/mL) S. aureus CICC25138 given:
COMPOUND	MIC (μg/mL) S. aureus CICC25138
CC[C@H](C)[C@H](NC(=O)[C@H](CCSC)NC(=O)[C@H](Cc1c[nH]c2ccccc12)NC(=O)[C@@H](N)CCCCN)C(=O)N[C@@H](CCCCN)C(=O)N[C@@H](Cc1c[nH]c2ccccc12)C(=O)N1CCC[C@H]1C(=O)N[C@@H](CO)C(=O)N[C@@H](CC(N)=O)C(=O)N[C@@H](Cc1c[nH]c2ccccc12)C(=O)N[C@@H](Cc1ccccc1)C(=O)N[C@H](C(=O)N[C@@H](CCSC)C(=O)N[C@@H](CC(C)C)C(N)=O)[C@@H](C)O [QLX-227-1] (H-KWMIKWPSNWFTML-NH2)	64 µg/mL
CC(C)[C@H](N)C(=O)N[C@@H](CCCCN)C(=O)N[C@H](C(=O)N[C@@H](Cc1ccccc1)C(=O)N[C@@H](CCCNC(=N)N)C(=O)N[C@@H](Cc1ccccc1)C(=O)N[C@@H](Cc1ccc(O)cc1)C(=O)N[C@@H](Cc1c[nH]c2ccccc12)C(=O)N[C@@H](CCCCN)C(=O)N[C@@H](CCCNC(=N)N)C(=O)N[C@@H](CCCCN)C(=O)N[C@@H](CCC(N)=O)C(=O)N[C@@H](CCCNC(=N)N)C(=O)N[C@@H](Cc1ccccc1)C(N)=O)C(C)C [QLX-3DV-12] (H-VKVFRFYWKRKQRF-NH2)	32 µg/mL

# input for lookup
// query # return recorded MIC (μg/mL) S. aureus CICC25138 for entry CC[C@H](C)[C@H](NC(=O)[C@H](CC(C)C)NC(=O)[C@@H](NC(=O)[C@H](C)NC(=O)[C@@H](N)CC(C)C)C(C)C)C(=O)N[C@@H](Cc1ccccc1)C(=O)N[C@H](C(=O)N[C@@H](CCCNC(=N)N)C(=O)N[C@@H](CCCNC(=N)N)C(=O)N[C@@H](CCCCN)C(=O)N[C@@H](CCC(N)=O)C(=O)N[C@@H](CC(C)C)C(N)=O)C(C)C [QLX-3DV-17] (H-LAVLIFVRRKQL-NH2)
// result 32 µg/mL
